Listing of entries alongside the reported TGI.
tested on: HOP-62 NSCLC; experiment: NCI tumour cell line growth inhibition, 48 h

Worked cases, answers included:
{"columns": ["compound", "TGI"],
 "data": [
  ["CC1=NC(=Cc2ccc([N+](=O)[O-])cc2)C(=O)N1n1c(-c2ccccc2)nc2ccccc2c1=O", "> 100 µM"],
  ["CNc1ncc(-c2nnnn2-c2ccccc2)c(CN(C)C)n1", "> 100 µM"]
]}

Query CC1(c2ccc(Cl)cc2)C2C(=O)NC(=O)C1C(=O)NC2=O (stereo not given) yields TGI of > 100 µM

Query COc1cc(N(Cc2ccc3oc(=O)c(-c4ccccc4)nc3c2)Cc2ccc3oc(=O)c(-c4ccccc4)nc3c2)cc(OC)c1OC yields TGI of > 10 µM

Query Cc1ccc2c(c1)C(=O)C(C1OC(=O)c3ccccc31)C2 (stereo not given) yields TGI of > 100 µM

----------
test system: DU-145 prostate; assay: NCI tumour cell line growth inhibition, 48 h
metricName: TGI

{"columns": ["compound", "metricName", "measValue"],
 "data": [
  ["O=[N+]([O-])c1cccc(C2CC(c3ccccc3)=Nc3ccccc3S2)c1 (stereo not given)", "TGI", "34.3 µM"],
  ["CC[C@H](C)[C@H](NC(=O)[C@H]1CCCCN1C)C(=O)N(C)[C@H](C[C@@H](OC(C)=O)c1nc(C(=O)N[C@@H](Cc2ccccc2)C[C@H](C)C(=O)O)cs1)C(C)C", "TGI", "0.0367 µM"],
  ["C[N+]1(CCN[N+]2(C)CCCCC2)CCc2ccccc2C1 (stereo not given)", "TGI", "> 100 µM"],
  ["COC(OC)[C@@H]1OC[C@@H](O)[C@@H]1n1cnc2c(N)ncnc21", "TGI", "> 100 µM"]
]}

Query O=C1NC(=NCCCc2ccccc2)S/C1=C\c1ccc2ncccc2c1 yields TGI of 18 µM

Query COc1ccc(-n2sc3ncccc3c2=O)cc1 yields TGI of > 100 µM

Query CC(=O)N(O)c1ccc(-c2nc3ccccc3s2)cc1 yields TGI of > 100 µM

Query CN(C)c1cc[n+](-c2nc(/N=C(\[O-])C(F)(F)F)nc3c2ncn3C2CC(O)C(CO)O2)cc1 (stereo not given) yields TGI of > 100 µM

Query c1cnc(N2CCN(Cc3c[nH]c4ccccc34)CC2)nc1 yields TGI of 94.2 µM

Query CN(C)C(=S)SCC(=O)Nc1ccccc1 yields TGI of > 100 µM

----------
Listing of entries alongside the reported TGI.
system: OVCAR-3 ovarian; experiment: NCI tumour cell line growth inhibition, 48 h

{"columns": ["molecule", "tgt", "metricName", "measValue"],
 "data": [
  ["c1cnc(N2CCN(Cc3c[nH]c4ccccc34)CC2)nc1", "OVCAR-3 ovarian", "TGI", "> 100 µM"]
]}

Query Cc1ccc2c(c1)C(=O)C(C1OC(=O)c3ccccc31)C2 (stereo not given) yields TGI of > 100 µM

----------
test system: T-47D breast; assay: NCI tumour cell line growth inhibition, 48 h
Listing of entries alongside the reported TGI.

{"columns": ["molecule", "tgt", "measValue"],
 "data": [
  ["C(=C\\N1CCCCC1)/c1nnnn1-c1ccccc1", "T-47D breast", "76.3 µM"]
]}

Result for COc1ccccc1C[C@@H]1OC2(C=CC(=O)C=C2)O[C@H]1Cc1ccccc1OC , tested on T-47D breast, TGI: > 50 µM

Result for O=C1Cc2cc(C(=O)NC3C[C@H]4CC[C@@H](C3)N4S(=O)(=O)CC3CCN(CCCC(F)(F)F)CC3)c(Cl)cc2N1 (some centres undefined) , tested on T-47D breast, TGI: > 100 µM

Result for COc1ccc(/C=N/n2cnc3[nH]c(C)c(Cc4ccccc4)c3c2=N)cc1 , tested on T-47D breast, TGI: > 100 µM
